Please provide measured pKd for the entries that follow.
B1: scFv; the commonest letter at each place (parent)
chain 1: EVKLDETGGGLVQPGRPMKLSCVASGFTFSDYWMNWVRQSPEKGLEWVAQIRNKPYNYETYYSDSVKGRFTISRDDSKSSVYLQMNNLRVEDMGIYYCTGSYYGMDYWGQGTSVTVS
chain 2: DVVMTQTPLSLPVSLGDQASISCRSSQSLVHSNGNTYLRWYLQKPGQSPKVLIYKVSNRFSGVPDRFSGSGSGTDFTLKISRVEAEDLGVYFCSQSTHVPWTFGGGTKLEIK

Variants of: B1
Assay: Kd (Tite-Seq)
Conditions: with fluorescein; format: scFv 4-4-20, heavy + light
pKd: −log10 of the molar value.

Exercise: State the recorded pKd for this entry: chain 1 F29D W33Y
Solution: ≤ 5.00

Exercise: State the recorded pKd for this entry: chain 1 Y102L D106E
Solution: 5.52

Exercise: State the recorded pKd for this entry: chain 1 F29M V37Y
Solution: 5.11

Exercise: State the recorded pKd for this entry: chain 1 D106N
Solution: 8.88

Exercise: State the recorded pKd for this entry: chain 1 T28Y M34W
Solution: 7.16

Exercise: State the recorded pKd for this entry: chain 1 G100P Y102W
Solution: ≤ 5.00

Exercise: State the recorded pKd for this entry: chain 1 G104D G109V
Solution: ≤ 5.00

Exercise: State the recorded pKd for this entry: chain 1 S101W Y107W
Solution: ≤ 5.00

Exercise: State the recorded pKd for this entry: chain 1 S30M D31S
Solution: 8.58

Exercise: State the recorded pKd for this entry: chain 1 N35G
Solution: 7.99

Exercise: State the recorded pKd for this entry: chain 1 Y102N W108D
Solution: ≤ 5.00

Exercise: State the recorded pKd for this entry: chain 1 F29N S30T M34E
Solution: 6.51

Exercise: State the recorded pKd for this entry: chain 1 G104A D106K
Solution: ≤ 5.00

Exercise: State the recorded pKd for this entry: chain 1 F29Q W33I
Solution: ≤ 5.00

Exercise: State the recorded pKd for this entry: chain 1 Y32E W33T
Solution: ≤ 5.00

Exercise: State the recorded pKd for this entry: chain 1 G100V S101I
Solution: ≤ 5.00

Exercise: State the recorded pKd for this entry: chain 1 W33M M34I
Solution: ≤ 5.00

Exercise: State the recorded pKd for this entry: chain 1 T28P S30K
Solution: ≥ 9.50

Exercise: State the recorded pKd for this entry: chain 1 G100W G109S
Solution: ≤ 5.00

Exercise: State the recorded pKd for this entry: chain 1 Y102F M105R
Solution: 7.84

Exercise: State the recorded pKd for this entry: chain 1 F29V W36S
Solution: ≤ 5.00

Exercise: State the recorded pKd for this entry: chain 1 W33E M34L
Solution: ≤ 5.00
